experiment: qHTS assay to identify small molecule agonists of H2AX (AID 1224845); conditions: CHO-K1 phospho-H2AX Ser139 HTRF, 3 h; series mostly up to 154 µM
Records with an inconclusive call do not appear. Activity calls are given as the source filed them. The call rests on the fitted dose curve; in most records, active means well fitted activation curve with a large enough effect in the signal ratio in the repeat runs (not every such curve was filed as active); inconclusive means weak or mixed curves; inactive means flat fitted curve, though single readings scatter; the % refers to the signal ratio.
In this exercise, the only acceptable responses are active, inactive

Example entries begin here.
Nc1ccc(Cl)cc1C(=O)c1ccccc1 : inactive
CC(Cl)CN(C)C (stereo not drawn) : inactive

Prompt line: What did this assay record as the result for O=C(NC(=O)c1c(F)cccc1F)Nc1cc(Cl)c(OC(F)(F)C(F)F)c(Cl)c1 ?
Response line: inactive

Prompt line: GET /call?item= C[As+](C)(C)CC(=O)[O-] returns the recorded outcome of this test.
Response line: inactive

Prompt line: In this assay, the call recorded for CN(C)[C@@H]1C(=O)C(C(N)=O)=C(O)[C@@]2(O)C(=O)C3=C(O)c4c(O)ccc(Cl)c4[C@@](C)(O)[C@H]3C[C@@H]12 was what?
Response line: inactive

Prompt line: For this compound, state the assay outcome: CCc1ccccc1C
Response line: inactive

Prompt line: # outcome recorded in this test, key = N#CCCSCCC#N
Response line: inactive

Prompt line: I would be grateful if you could indicate the recorded call for CN(C)C1CSSSC1 .
Response line: inactive

Prompt line: Could you kindly confirm the outcome this assay logged for Clc1ccc(-c2ccccc2)cc1 ?
Response line: inactive

Prompt line: Which outcome was assigned to COC(=O)N(C(=O)N1COC2(C(=O)OC)Cc3cc(Cl)ccc3C2=N1)c1ccc(OC(F)(F)F)cc1 (stereo not drawn) in this test?
Response line: inactive

Prompt line: Name the outcome recorded for CN(C)C(=S)[S-].CN(C)C(=S)[S-].[Cu+2] in the assay.
Response line: active

Prompt line: What did the test return for CCCCOP(=O)(CCCC)OCCCC ?
Response line: inactive

Prompt line: How was N#Cc1ccccc1N classified in this test?
Response line: inactive

====

test: qHTS assay to identify small molecule antagonists of the progesterone receptor (PR) signaling pathway - cell viability counter screen (AID 1346798); details: PR-UAS-bla HEK293T viability, CellTiter-Glo luminescence, 16 h; series mostly up to 92.4 µM; further: nearly all actives have a fitted effect of over 50% in size; further: potency means the concentration at half of the fitted maximal effect
Inconclusive results are not listed. Active and inactive are the calls of the source. Calls follow the shape of the dose curve; as a rule, active = well fitted cell-killing curve with a large enough effect in the repeat runs; inconclusive = weak or mixed curves, or effect the other way; inactive = no such curve, though single readings can be large or run the other way.
attribute_measured: Potency

Worked examples follow.
CCCCN(CCCC)C(=S)[S-].CCCCN(CCCC)C(=S)[S-].[Zn+2] : 43200 nM (active)
ClC1=C(Cl)C2(Cl)C3C(Cl)C=CC3C1(Cl)C2(Cl)Cl (stereo not given) : inactive
O=C1NCN(c2ccccc2)C12CCN(CC1COc3ccccc3O1)CC2 (stereo not given) : inactive
CCOP(=S)(OCC)OC(Cl)C(Cl)(Cl)Cl (stereo not given) : inactive
Oc1ccc(C2(c3ccc(O)cc3)c3ccccc3-c3ccccc32)cc1 : 48600 nM (active)
O=[N+]([O-])c1cc(Cl)ccc1Cl : inactive

Each compound below has a recorded value; state its Potency.
1. C[C@@H]1O[C@@H](O[C@@H]2C=C3CC[C@@H]4[C@H](CC[C@]5(C)[C@@H](c6ccc(=O)oc6)CC[C@]45O)[C@@]3(C)CC2)[C@H](O)[C@H](O)[C@H]1O
2. CCCCCCCCCCBr
3. CCN
4. S=C(SSC(=S)N1CCCCC1)N1CCCCC1
5. Cc1cc(N=Nc2ccccc2C)ccc1N
6. BrC(Br)Br
7. CN(C)S(=O)(=O)N(SC(F)(Cl)Cl)c1ccccc1

Response line:
1. 13.3 nM (active)
2. inactive
3. inactive
4. 531 nM (active)
5. inactive
6. inactive
7. 61100 nM (active)
